# experimental.system: recombinant human PAI-1 (Homo sapiens)
# procedure.summary: Test Example 2: Human PAI-1 Inhibitory Activity (pH 7.4 HEPES buffer, 10 minutes incubation with two-chain tPA)
# Format: biochemical
# Set-up: purchased Molecular Innovations, Inc
# experimental.context: read-out: Inhibition Rate of PAI-1 Activity (%)
Hi, to clarify the labels: rule met covers inhibition at 0.3 µM from 9% upward, rule not met covers anything below 9%.

QUERY: Record CCCOc1ccc(N(Cc2ccc(C(C)(C)C)cc2)C(=O)C(=O)O)c(-c2ccc(OC(F)(F)F)cc2)c1 ; criterion: inhibition at 0.3 µM no lower than 9%. Met?
RESULT: rule not met

QUERY: Reported inhibition at 0.3 µM at or above 9%? CC(C)(C)c1ccc(-c2ccc(CCC(=O)O)c(Oc3ccc(OC(F)(F)F)cc3)c2)cc1
RESULT: rule met

QUERY: Say whether CCCCCCCOc1cc(-c2ccc(OC(F)(F)F)cc2)cc(OCCCCCCC)c1OCC(=O)O shows inhibition at 0.3 µM of 9% or more.
RESULT: rule met

QUERY: In plain terms: is recorded inhibition at 0.3 µM at least 9% for CC(C)(C)c1ccc(Oc2cc(Nc3ccc(OC(F)(F)F)cc3)ccc2CCC(=O)O)cc1 ?
RESULT: rule met

QUERY: Evaluate CC(C)c1ccc(Oc2cc(-c3ccc(OC(F)(F)F)cc3)ccc2/C=C/C(=O)O)cc1 : inhibition at 0.3 µM at minimum 9%?
RESULT: rule met

QUERY: Decide: is the reported value of inhibition at 0.3 µM for O=C(O)/C=C/c1ccc(-c2ccc(OC(F)(F)F)cc2)cc1OCCCOCc1ccccc1 equal to or greater than 9%?
RESULT: rule not met

----------
Could you please report measured inhibition at 10 µM for the items listed next?
# experimental.system: recombinant rat PAI-1 (Rattus norvegicus, UniProt P20961)
# Sequence (P20961 24-402): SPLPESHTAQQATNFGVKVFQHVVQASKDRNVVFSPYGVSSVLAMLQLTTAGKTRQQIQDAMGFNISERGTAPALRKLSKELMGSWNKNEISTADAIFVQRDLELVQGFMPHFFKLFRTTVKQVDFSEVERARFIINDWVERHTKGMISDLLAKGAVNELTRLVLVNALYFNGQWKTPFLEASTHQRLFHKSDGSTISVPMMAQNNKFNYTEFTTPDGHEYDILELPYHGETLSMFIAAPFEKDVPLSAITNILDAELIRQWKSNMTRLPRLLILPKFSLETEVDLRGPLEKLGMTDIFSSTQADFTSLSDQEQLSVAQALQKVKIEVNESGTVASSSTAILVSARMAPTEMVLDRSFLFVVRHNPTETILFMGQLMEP
# procedure.summary: biochemical
# experimental.context: read-out: Inhibition Rate of PAI-1 Activity (%)
Quick reminder: number only, in %, skip the unit.

QUERY: Name the recorded inhibition at 10 µM for CC(C)c1ccc(Oc2ccc(CCC(=O)O)c(Oc3ccc(C(C)C)cc3)c2)cc1 [Compound 73] .
RESULT: 98

QUERY: For the compound CC(C)(C)c1ccc(COc2ccc(-c3ccc(OC(F)(F)F)cc3)cc2CCC(=O)O)cc1 [Compound 5] , what inhibition at 10 µM is on record?
RESULT: 93

QUERY: GET /values?readout=inhibition at 10 µM&item= CC(C)(C)c1ccc(COc2c(CCC(=O)O)cccc2-c2ccc(OC(F)(F)F)cc2)cc1 [Compound 88]
RESULT: 83

QUERY: Form field: reported inhibition at 10 µM of CC(C)(C)c1ccc(Oc2cccc(-c3ccc(OC(F)(F)F)cc3)c2CCC(=O)O)cc1 [Compound 94]
RESULT: 91

QUERY: So what does the record say about inhibition at 10 µM for O=C(O)CCc1c(Oc2ccc(OC(F)(F)F)cc2)cccc1Oc1ccc(OC(F)(F)F)cc1 [Compound 98] ?
RESULT: 95

QUERY: # input compound: CC(C)(C)c1ccc(COc2ccc(-c3ccc(OC(F)(F)F)cc3)cc2OCC(=O)O)cc1 [Compound 105] ; wanted: its inhibition at 10 µM
RESULT: 90

QUERY: Fill in the blank: the reported inhibition at 10 µM of O=C(O)CCc1cc(-c2ccc(OC(F)(F)F)cc2)ccc1OCCCCc1ccccc1 [Compound 102] is ____.
RESULT: 93

QUERY: Using the record for CC(C)(C)c1ccc(CN(C(=O)C(=O)O)c2ccc(-c3ccc(OC(F)(F)F)cc3)cc2)cc1 [Compound 129] , report its inhibition at 10 µM.
RESULT: 90

QUERY: Entry CC(C)(C)c1ccc(CN(C(=O)C(=O)O)c2ccc(Cl)cc2-c2ccc(OC(F)(F)F)cc2)cc1 [Compound 192] : reported inhibition at 10 µM = ?
RESULT: 96

QUERY: Give the measured inhibition at 10 µM of CC(C)(Oc1cccc(-c2ccc(OC(F)(F)F)cc2)c1OCc1ccc(C(C)(C)C)cc1)C(=O)O [Compound 118] .
RESULT: 93

QUERY: # inhibition at 10 µM lookup, item CCN(CC)c1ccc(N(CCCc2ccccc2)C(=O)C(=O)O)c(-c2ccc(OC(F)(F)F)cc2)c1 [Compound 238]
RESULT: 98

----------
For each record, write down the corresponding inhibition at 1 µM.
# experimental.system: recombinant human PAI-1 (Homo sapiens, UniProt P05121)
# Sequence (P05121 24-402): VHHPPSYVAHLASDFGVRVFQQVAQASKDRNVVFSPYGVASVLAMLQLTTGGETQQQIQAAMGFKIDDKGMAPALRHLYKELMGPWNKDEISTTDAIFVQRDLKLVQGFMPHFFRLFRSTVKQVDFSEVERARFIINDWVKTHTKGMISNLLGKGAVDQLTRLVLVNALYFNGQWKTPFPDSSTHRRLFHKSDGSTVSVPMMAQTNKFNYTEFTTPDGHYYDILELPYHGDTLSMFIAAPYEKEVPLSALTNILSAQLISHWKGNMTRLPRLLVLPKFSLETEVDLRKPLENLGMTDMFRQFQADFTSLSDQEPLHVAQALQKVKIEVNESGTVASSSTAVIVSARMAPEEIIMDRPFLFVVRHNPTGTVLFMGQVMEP
# procedure.summary: Test Example 2: Human PAI-1 Inhibitory Activity (pH 7.4 HEPES buffer, 10 minutes incubation with two-chain tPA)
# Type: biochemical
# Set-up: purchased Molecular Innovations, Inc
# experimental.context: read-out: Inhibition Rate of PAI-1 Activity (%)
Dear colleague, please return just the value in %, with no unit written.

QUERY: Would you kindly share the measured inhibition at 1 µM for CC(C)(C)c1ccc(Oc2cc(-c3cccc(OC(F)(F)F)c3)ccc2CCC(=O)O)cc1 [Compound 504] ?
RESULT: 91

QUERY: Bench note: what inhibition at 1 µM did CCCCC(C(=O)O)N(Cc1ccc(C(C)(C)C)cc1)c1cccc(-c2ccc(OC(F)(F)F)cc2)c1 (stereo not drawn) [Compound 641] show?
RESULT: 95

QUERY: Record request: inhibition at 1 µM value, item O=C(O)CCCCCCOc1ccc(-c2ccc(OC(F)(F)F)cc2)cc1N(CCCCc1ccccc1)C(=O)C(=O)O [Compound 633]
RESULT: 39

QUERY: Reported inhibition at 1 µM, compound CC(C)(C)c1ccc(Oc2ccc(-c3ccc(OC(F)(F)F)cc3)cc2CCC(=O)O)cc1 [Compound 13] : ____
RESULT: 36

QUERY: Entry CC(C)(C)c1ccc(Oc2cc(-c3cccc(OC(F)(F)F)c3)ccc2/C=C/C(=O)O)cc1 [Compound 503] : reported inhibition at 1 µM = ?
RESULT: 97

QUERY: // inhibition at 1 µM lookup, key: CC(C)(C)c1ccc(Oc2cc(Oc3ccc(OC(F)(F)F)cc3)ccc2CCC(=O)O)cc1 [Compound 90]
RESULT: 22

QUERY: Which inhibition at 1 µM is listed for CCCCOc1ccc(-c2ccc(OC(F)(F)F)cc2)cc1N(CCCCc1ccccc1)C(=O)C(=O)O [Compound 231] ?
RESULT: 34

QUERY: Which inhibition at 1 µM value belongs to CC(C)(C)Oc1ccc(-c2ccc(OC(F)(F)F)cc2)cc1N(CCCCc1ccccc1)C(=O)C(=O)O [Compound 373] ?
RESULT: 28

QUERY: Would you mind telling me what inhibition at 1 µM value was observed for CCCOc1ccc(N(Cc2ccc(C(C)(C)C)cc2)C(=O)C(=O)O)cc1-c1ccc(OC(F)(F)F)cc1 [Compound 185] ?
RESULT: 34

QUERY: If you can, please state the reported inhibition at 1 µM value of Cc1cc(C)cc(COc2ccc(-c3ccc(OC(F)(F)F)cc3)cc2N(CCCCc2ccccc2)C(=O)C(=O)O)c1 [Compound 662] .
RESULT: 98

QUERY: # lookup: inhibition at 1 µM of CCCCC(Oc1cc(-c2ccc(OC(F)(F)F)cc2)ccc1OCCCCc1ccc(Cl)cc1)C(=O)O (stereo not drawn) [Compound 325]
RESULT: 85

QUERY: Can you share its inhibition at 1 µM? I mean this compound: CCCCOc1cccc(Oc2cc(-c3ccc(OC(F)(F)F)cc3)ccc2CCC(=O)O)c1 [Compound 472]
RESULT: 71

QUERY: Fill blank: measured inhibition at 1 µM of the compound CCCCCCCCCOc1ccc(-c2ccc(OC(F)(F)F)cc2)cc1N(CCCCc1ccccc1)C(=O)C(=O)O [Compound 364] is ____.
RESULT: 97

----------
Would you mind telling me the reported inhibition at 0.3 µM of each entry?
# experimental.system: recombinant human PAI-1 (Homo sapiens, UniProt P05121)
# procedure.summary: Test Example 2: Human PAI-1 Inhibitory Activity (pH 7.4 HEPES buffer, 10 minutes incubation with two-chain tPA)
# Format: biochemical
# Parameters: purchased Molecular Innovations, Inc
# experimental.context: read-out: Inhibition Rate of PAI-1 Activity (%)
Express the result in % but write the number alone.

QUERY: Look at this molecule and give its reported inhibition at 0.3 µM. CCCCc1ccc(CN(C(=O)C(=O)O)c2ccc(-c3ccc(C(C)(C)C)cc3)cc2)cc1 [Compound 206]
RESULT: 13

QUERY: If you can, please state the reported inhibition at 0.3 µM value of CCCCCOc1cc(-c2ccc(OC(F)(F)F)cc2)cc(N(CCCCc2ccccc2)C(=O)C(=O)O)c1OCCCCC [Compound 372] .
RESULT: 27

QUERY: Request the reported inhibition at 0.3 µM associated with CCCCCCC(Oc1cc(-c2ccc(OC(F)(F)F)cc2)ccc1Oc1ccc(OC(F)(F)F)cc1)C(=O)O (stereo not shown) [Compound 326]
RESULT: 28

QUERY: # input molecule: O=C(O)CCc1ccc(-c2ccc(OC(F)(F)F)cc2)cc1OCCCSc1ccccc1 [Compound 508] ; wanted: its inhibition at 0.3 µM
RESULT: 9

QUERY: What value of inhibition at 0.3 µM has been reported for the following molecule? CC(C)(C)c1ccc(Oc2cc(-c3cc(Cl)ccc3Cl)ccc2CCC(=O)O)cc1 [Compound 484]
RESULT: 7

QUERY: Entry CCCCCOc1cc(-c2cccc(C)c2)ccc1N(CCCCc1ccccc1)C(=O)C(=O)O [Compound 376] : reported inhibition at 0.3 µM = ?
RESULT: 15

QUERY: I have this molecule here, CCCCCOc1ccc(-c2ccc(OC(F)(F)F)cc2)cc1CN(CC(=O)O)c1ccc(C(C)(C)C)cc1 [Compound 647] , and I need its recorded inhibition at 0.3 µM.
RESULT: 43

QUERY: What does the data say about its inhibition at 0.3 µM? Entry: CC(C)(C)c1ccc(COc2c(OCC(=O)O)cccc2-c2ccc(OC(F)(F)F)cc2)cc1 [Compound 117]
RESULT: 7

QUERY: // lookup inhibition at 0.3 µM for CC(C)(C)c1ccc(Oc2cc(-c3ccc(OC(F)(F)F)cc3)ccc2CCCC(=O)O)cc1 [Compound 527]
RESULT: 36

QUERY: Requested read-out: inhibition at 0.3 µM. Entry: CCCCCOc1ccc(-c2ccccc2)cc1N(CCCCc1ccccc1)C(=O)C(=O)O [Compound 360]
RESULT: 8

QUERY: Find the recorded inhibition at 0.3 µM belonging to O=C(O)C(=O)N(CCCCc1ccccc1)c1cc(-c2ccc(OC(F)(F)F)cc2)ccc1OCCCCC(F)(F)F [Compound 381] and report it.
RESULT: 13

QUERY: If you can, please state the reported inhibition at 0.3 µM value of CSc1ccc(-c2ccc(OCC(=O)O)c(Oc3ccc(C(C)(C)C)cc3)c2)cc1 [Compound 448] .
RESULT: 11

QUERY: May I ask what inhibition at 0.3 µM has been recorded for CCCCC(Oc1ccc(-c2ccc(OC(F)(F)F)cc2)cc1OCc1ccc(C(C)(C)C)cc1)C(=O)O (stereo not shown) [Compound 310] ?
RESULT: 19

QUERY: Quick one: inhibition at 0.3 µM for CCC(C)(C)c1ccc(Oc2cc(-c3ccc(OC(F)(F)F)cc3)ccc2CCC(=O)O)cc1 [Compound 475] ?
RESULT: 27

QUERY: Tell me the measured inhibition at 0.3 µM of CCCCCOc1ccc(-c2ccc(OC(F)(F)F)cc2)cc1N(CCCCc1cc(C)ccc1C)C(=O)C(=O)O [Compound 670] , please.
RESULT: 55

QUERY: # input molecule: CCCCC(Oc1cc(-c2ccc(OC(F)(F)F)cc2)ccc1OCCCCc1ccccc1)C(=O)O (stereo not shown) [Compound 306] ; wanted: its inhibition at 0.3 µM
RESULT: 0

QUERY: Look up inhibition at 0.3 µM: CCCCCOc1ccc(-c2cccc(C)c2)cc1N(CCCCc1ccccc1)C(=O)C(=O)O [Compound 379]
RESULT: 17

QUERY: I'd like to know its inhibition at 0.3 µM. The molecule in question is CCCCN(CC(=O)O)c1cc(-c2ccc(OC(F)(F)F)cc2)ccc1OCCCCc1ccccc1 [Compound 433]
RESULT: 6

QUERY: Item CCCCc1ccc(Oc2cc(-c3ccc(OC(F)(F)F)cc3)ccc2CCC(=O)O)cc1 [Compound 512] has what recorded inhibition at 0.3 µM?
RESULT: 41

QUERY: Suppose we examine the molecule CC(C)(C)c1ccc(Sc2cc(-c3ccc(OC(F)(F)F)cc3)ccc2C(=O)C(=O)O)cc1 [Compound 548] ; what inhibition at 0.3 µM value has been reported?
RESULT: 16

QUERY: # input molecule: CC(C)(C)c1ccc(Oc2cc(-c3ccc(C(F)(F)F)cc3)ccc2OCC(=O)O)cc1 [Compound 330] ; wanted: its inhibition at 0.3 µM
RESULT: 1

QUERY: For the molecule CC(C)(Oc1cc(-c2ccc(OC(F)(F)F)cc2)ccc1OCCCCc1ccccc1)C(=O)O [Compound 116] , what inhibition at 0.3 µM is on record?
RESULT: 0

QUERY: Request the reported inhibition at 0.3 µM associated with CCCCOc1cccc(Oc2cc(-c3ccc(OC(F)(F)F)cc3)ccc2CCC(=O)O)c1 [Compound 472]
RESULT: 14

QUERY: Suppose we examine the molecule CC(C)(C)c1ccc(COc2cc(-c3ccc(OC(F)(F)F)cc3)ccc2OCC(=O)O)cc1 [Compound 304] ; what inhibition at 0.3 µM value has been reported?
RESULT: 1

QUERY: # inhibition at 0.3 µM lookup, item CC(C)(C)c1ccc(CN(C(=O)C(=O)O)c2cc(-c3ccc(OC(F)(F)F)cc3)cc(C(F)(F)F)c2)cc1 [Compound 139]
RESULT: 3

QUERY: Reported inhibition at 0.3 µM for CC(C)(C)c1cccc(Oc2ccc(-c3ccc(OC(F)(F)F)cc3)cc2/C=C/C(=O)O)c1 [Compound 437] : what is it?
RESULT: 12

QUERY: # input molecule: CC(C)(C)c1ccc(Oc2cc(-c3ccc(OC(F)(F)F)cc3)ccc2CCC(=O)O)cc1 [Compound 80] ; wanted: its inhibition at 0.3 µM
RESULT: 11

QUERY: Would you mind telling me what inhibition at 0.3 µM value was observed for O=C(O)/C=C/c1ccc(-c2ccc(OC(F)(F)F)cc2)cc1Oc1ccc(OC(F)(F)F)cc1 [Compound 477] ?
RESULT: 21

QUERY: Value lookup for inhibition at 0.3 µM; key = CC(C)(C)c1ccc(COc2ccc(-c3ccc(OC(F)(F)F)cc3)cc2CC(=O)O)cc1 [Compound 9]
RESULT: 6

QUERY: Please give the measured inhibition at 0.3 µM for this molecule: CC(C)(C)c1ccc(CN(C(=O)C(=O)O)c2cc(C(F)(F)F)ccc2-c2ccc(OC(F)(F)F)cc2)cc1 [Compound 168]
RESULT: 0

QUERY: // lookup inhibition at 0.3 µM for CC(C)(C)c1ccc(Oc2cc(-c3ccc(Cl)cc3)ccc2OCC(=O)O)cc1 [Compound 457]
RESULT: 18

Entry source: patent EP2272817A1
